- System: Fusarium oxysporum
- Measurement notes: Antimicrobial activity against Fusarium oxysporum assessed as inhibition zone at 200 ug/ml incubated for 24 hrs by disk diffusion method
- Assay type: functional
- Conditions used: read-out: IZ
Property measured: zone of inhibition at 200 µg/mL (mm)
Numbers only, in mm.

Sample records with zone of inhibition at 200 µg/mL:
>  <Molecule>
COc1ccc(/C=C2\OC3(COC(=O)N3)N(CCCNc3ccnc4cc(Cl)ccc34)C2=O)cc1 (centres undefined)

>  <Value units>
mm

>  <zone of inhibition at 200 µg/mL>
9

$$$$
>  <Molecule>
OC(Cn1cncn1)(Cn1cncn1)c1ccc(F)cc1F

>  <Value units>
mm

>  <zone of inhibition at 200 µg/mL>
23

$$$$
>  <Molecule>
O=C1NC2(CO1)O/C(=C\c1ccc([N+](=O)[O-])cc1)C(=O)N2CCCNc1ccnc2cc(Cl)ccc12 (centres undefined)

>  <Value units>
mm

>  <zone of inhibition at 200 µg/mL>
14

$$$$

Let us move to another entry and its zone of inhibition at 200 µg/mL.
Q. Hello, please tell me recorded zone of inhibition at 200 µg/mL for this one: O=C1NC2(CO1)O/C(=C\c1ccc(Cl)cc1)C(=O)N2CCCNc1ccnc2cc(Cl)ccc12 (centres undefined)
A. 10

---

Exercise: state measured MIC for each of the molecules provided.
- System: Staphylococcus aureus
- Measurement notes: Antibacterial activity against methicillin-resistant Staphylococcus aureus assessed as inhibition of bacterial growth by CLSI protocol based method
- Assay type: functional
One number for each entry, in µg/mL.

>  <Molecule>
CC(=O)NC[C@H]1CN(c2ccc(N3CCN(/N=C/c4c(Cl)cccc4[N+](=O)[O-])CC3)c(F)c2)C(=O)O1

>  <MIC, µg/mL>
8

$$$$
>  <Molecule>
CC(=O)NC[C@H]1CN(c2ccc(N3CCN(/N=C/Cn4c([N+](=O)[O-])cnc4C)CC3)c(F)c2)C(=O)O1

>  <MIC, µg/mL>
1

$$$$
>  <Molecule>
CC(=O)NC[C@H]1CN(c2ccc(N3CCN(/N=C/c4cccc([N+](=O)[O-])c4)CC3)c(F)c2)C(=O)O1

>  <MIC, µg/mL>
1

$$$$

List the reported MIC of each molecule below.
1. CC(=O)NC[C@H]1CN(c2ccc(N3CCN(/N=C/c4ccc([N+](=O)[O-])cc4)CC3)c(F)c2)C(=O)O1
2. CC(=O)NC[C@H]1CN(c2ccc(N3CCN(Cc4ccc([N+](=O)[O-])o4)CC3)c(F)c2)C(=O)O1 [RANBEZOLID]
3. CC(=O)NC[C@H]1CN(c2ccc(N3CCN(/N=C/c4ccccc4[N+](=O)[O-])CC3)c(F)c2)C(=O)O1
4. CC(=O)NC[C@H]1CN(c2ccc(N3CCN(/N=C/c4ccc([N+](=O)[O-])o4)CC3)c(F)c2)C(=O)O1
5. CC(=O)NC[C@H]1CN(c2ccc(N3CCN(/N=C/c4ccc([N+](=O)[O-])s4)CC3)c(F)c2)C(=O)O1
6. CC(=O)NC[C@H]1CN(c2ccc(N3CCN(/N=C(\C)Cn4c([N+](=O)[O-])cnc4C)CC3)c(F)c2)C(=O)O1

A.
1. 4
2. 2
3. 1
4. 1
5. 1
6. 1

---

- System: Staphylococcus epidermidis
- Measurement notes: Antibacterial activity against Staphylococcus epidermidis ATCC 12228 assessed as inhibition of bacterial growth incubated for 18 to 24 hrs by CLSI protocol based Tryptic soy broth method
- Format: functional
- Conditions used: time 18-24 hrs
Exercise: state measured log10 MIC for each of the molecules provided.
Hi team, quick reminder: these entries are log10 of MIC (µg/mL).

Sample records with log10 MIC:
>  <Structure as smiles>
Cc1nc(C)c(COc2ccc(N3C[C@H](CNC(=O)c4ccco4)OC3=O)cc2)nc1C

>  <Test system>
Staphylococcus epidermidis

>  <Property measured>
log10 MIC

>  <Observed measurement>
1.81

$$$$
>  <Structure as smiles>
Cc1nc(C)c(COc2ccc(N3C[C@H](CNC(=O)C(Cl)Cl)OC3=O)cc2F)nc1C

>  <Test system>
Staphylococcus epidermidis

>  <Property measured>
log10 MIC

>  <Observed measurement>
0.60

$$$$
>  <Structure as smiles>
Cc1nc(C)c(COc2ccc(N3C[C@H](Cn4ccnn4)OC3=O)cc2)nc1C

>  <Test system>
Staphylococcus epidermidis

>  <Property measured>
log10 MIC

>  <Observed measurement>
1.81

$$$$

List the reported log10 MIC of each molecule below.
1. Cc1nc(C)c(COc2ccc(N3C[C@H](CO)OC3=O)cc2F)nc1C
2. Cc1nc(C)c(COc2ccc(N3C[C@H](CNC(=O)CCl)OC3=O)cc2)nc1C
3. CC(=O)NC[C@H]1CN(c2ccc(OCc3nc(C)c(C)nc3C)cc2)C(=O)O1
4. CC(=O)NC[C@H]1CN(c2ccc(OCc3nc(C)c(C)nc3C)c(F)c2)C(=O)O1

A.
2.11
0.90
1.20
0.60

List the reported log10 MIC of each molecule below.
1. Cc1nc(C)c(COc2ccc(N3C[C@H](CNC(=O)C(Cl)Cl)OC3=O)cc2)nc1C
2. Cc1nc(C)c(COc2ccc(N3C[C@H](Cn4ccnn4)OC3=O)cc2F)nc1C
3. COCC(=O)NC[C@H]1CN(c2ccc(OCc3nc(C)c(C)nc3C)cc2)C(=O)O1

A.
0.90
0.90
2.11
